The reported numbers originate from patent US20260258115A1.

The entries below are paired with their reported pKd.
target: RSV prefusion F (preF), DS-Cav1 (Respiratory Syncytial Virus, UniProt P03420 26-513)
assayMethodText: BLI, IgG on anti-human IgG sensor, 100 nM antigen, 1:1 fit
Quick note: pKd means taking -log10 of the concentration in moles per liter.

Tell me its pKd given ADI-41527 (antibody, V domains shown, also called Ab 799; Antibody Number 799) VH: EVQLLESGGGLVQPGGSLRLSCAASGFTFTSYWMSWVRQAPGQGLEWVATIKQDGSEKYYVDSVKGRFTISRDNAKNSLYLQMNSLGAEDTAVYYCARDMYCSTTTCYFFETYYYNGMDVWGQGTTVTVSS VL: DIRLTQSPSSVSASVGDRVTITCRASQVTSTWLAWYQQNPGKAPKLLIYAASRLQSGVPSRFSGSGSGTEFTLTISSLQPEDFATYYCQQANSFPLTFGGGTKVEIK as the entry.
9.15

Tell me its pKd given ADI-41481 (antibody, V domains shown, also called Ab 763; Antibody Number 763) VH: QVQLVESGPGLVKPSETLSLACSVSGVSISTYYWTWIRQPPGKGLEWIGYISYSGSTNYNPSLKSRVTISADTSKNQFSLRLNSVTAADTAVYYCARTYYDFWSTYYGEFDHWGHGTLVTVSS VL: SYELTQPLSVSVALGQTARITCGGNNIESKNVHWYQQKPGQAPVVVMYRDTNRPSGIPERFSGSNSGNTATLTISRAQAGDEADYYCQVWDSGTAGVVFGGGTKVTVL as the entry.
8.68
